- Protocol summary: Drug excretion in rat bile
- Type: ADME, tissue-based
- Stated conditions: read-out: Drug excretion
Observable: dose excreted (%)

P: COc1ccc2cc3[n+](cc2c1OC)CCc1cc2c(cc1-3)OCO2
Q: COc1c(O)ccc2cc3[n+](cc12)CCc1cc2c(cc1-3)OCO2.[Cl-]
Query: Among P and Q , whose measured dose excreted is the smaller figure? # answer = label of selected item
Reply: P
(P: 22.8%, Q: 83%)

---

- Test system: Ca-Ski
- Protocol summary: Cytotoxicity against human CaSki cells measured after 48 hrs by SRB assay
- Assay type: functional, cell-based
Reported values of IC50 for individual entries

COc1cc(CN2CCN(c3ccc(C)cc3C)CC2)c2cc3[n+](cc2c1O)CCc1cc2c(cc1-3)OCO2.[Cl-]; 3.41 to 6.08 µg/mL
COc1ccc2cc3[n+](cc2c1OCCCCCNc1nc2ccc(F)cc2s1)CCc1cc2c(cc1-3)OCO2.[Cl-]; 5.31 µg/mL
COc1ccc2cc3[n+](cc2c1OCCCCCNc1nc2ccc(C(F)(F)F)cc2s1)CCc1cc2c(cc1-3)OCO2.[Cl-]; 5.31 µg/mL
COc1cc(CN2CCN(c3ccc(F)cc3F)CC2)c2cc3[n+](cc2c1O)CCc1cc2c(cc1-3)OCO2.[Cl-]; 3.41 to 6.08 µg/mL
COc1cc(CN2CCN(c3cccc(C)c3C)CC2)c2cc3[n+](cc2c1O)CCc1cc2c(cc1-3)OCO2.[Cl-]; 3.41 to 6.08 µg/mL
COc1ccc2cc3[n+](cc2c1OCCCCCNNc1nc2ccccc2s1)CCc1cc2c(cc1-3)OCO2.[Cl-]; 5.31 µg/mL
COc1cc(CN2CCN(c3cc(Cl)cc(Cl)c3)CC2)c2cc3[n+](cc2c1O)CCc1cc2c(cc1-3)OCO2.[Cl-]; 3.41 to 6.08 µg/mL

From here, focus on the item given below.
Query: Fill in the blank: the reported IC50 of COc1cc(CN2CCN(c3cccc(Cl)c3Cl)CC2)c2cc3[n+](cc2c1O)CCc1cc2c(cc1-3)OCO2.[Cl-] is ____.
Reply: 3.41 to 6.08 µg/mL

---

- Protocol summary: Drug excretion in rat feces
- Assay type: ADME, tissue-based
- Stated conditions: faeces, read-out: Drug excretion
Observable: dose excreted (%)
The response must be a number in % with no trailing unit.

Query: Fill in the blank: the reported dose excreted of COc1ccc2cc3[n+](cc2c1OC)CCc1cc2c(cc1-3)OCO2 [BERBERINE] is ____.
Reply: 22.7

---

- Protocol summary: Drug excretion in rat urine
- Assay type: ADME, tissue-based
- Stated conditions: read-out: Drug excretion
Observable: dose excreted (%)
The response must be a number in % with no trailing unit.

Query: Fill in the blank: the reported dose excreted of COc1ccc2cc3[n+](cc2c1OC)CCc1cc2c(cc1-3)OCO2 [BERBERINE] is ____.
Reply: 0.0939
